Attribution: the PETadex activity labels (doi:10.1038/s41467-023-40233-w)

Substrate: pcPET (post-consumer)
Test: Proxy for plastic degradation [Released monomer concentration (HPLC/LC-MS) (TPA+MHET+BHET)]
Conditions: pH 9; 60 °C; 6 h
Measured Quantity: Proxy for plastic degradation (µM)
Enter your answer as a number in µM; do not include the unit.

# example entries with known answers
[[record]]
protein = "unnamed (protein) MLSFLRSTGRPERRRASLPALLLFTAALVASGLTAAPAAQAADNPYQRGPDPTNASIEAATGPFAVGTQPIVGASGFGGGQIYYPTDTSQTYGAVVIVPGFISVWAQLAWLGPRLASQGFVVIGIETSVITDLPDPRGDQALAALDWATTRSPVASRIDRTRLAAAGWSMGGGGLRRAACQRPSLKAIVGMAPWNGERNWSCVTVPTLFFGGSSDAVASPNDHAKPFYNSITRAEKDYIELCNADHFFPTSANTTMAKYFISWLKRWVDNDTRYTQFLCPGPSTGLFAPVCASMNTCPF"
measured_quantity = "Proxy for plastic degradation"
unit_spec = "µM"
meas_value = 420

[[record]]
protein = "unnamed (protein) MLSFLRSTGRPERRRASLPALLLFTAALVASGLTAAPAAQAADNPYQRGPDPTNASIEAATGPFAVGTQPIVGASGFGGGQIYYPTDTSQTYGAVVIVPGFISVWAQLNWLGPRLASQGFVVIGIETSVITDLPDPRGDQALAALDWATTRSPVASRIDRTRLAAAGWSMGGGGLRRAACQRPSLKAIVGMAPWNGERNWSCVTVPTLFFGGSSDAVASPNDHAKPFYNSITRAEKDYIELCNADHFFPTSANTTMAKYFISWLKRWVDNDTRYTQFLCPGPSTGLFAPVCASMNTCPF"
measured_quantity = "Proxy for plastic degradation"
unit_spec = "µM"
meas_value = 270


The measured Proxy for plastic degradation associated with unnamed (protein) MLSFLRSTGRPERRRASLPALLLFTAALVASGLTAAPAAQAADNPYQRGPDPTNASIEAATGPFAVGTQPIVGASGFGGGQIYYPTDTSQTYGAVVIVPGFISVWAQLAWLGPRLASQGFVVIGIETSTITDLPDPRGDQALAALDWATTRSPVRSRIDRTRLAAAGWSMGGGGLRRAACQRPSLKAIVGMAPWNGEKNWSCVTVPTLFFGGSSDAVASPNDHAKPFYNSITRAEKDYIELCNADHFFPTSANTTMAKYFISWLKRWVDNDTRYTQFLCPGPSTGLFAPVCASMNTCPF reads 1560
